Each recorded value in this set is attributed to PubChem BioAssay (NCI).

Here, each record is paired with measured GI50 data.
tested on: SF-268 CNS

Consider the worked cases shown below.
{"compound": "CSC1=Nc2c(c(C)c(-c3ccccc3)n2COC(CO)CO)C2=NC(=O)C(C)N12 (centres undefined)", "measured-metric": "GI50", "observed-result": "> 100 µM"}
{"compound": "O=S(=O)(NCCNc1nccc(-c2c(-c3cccc(O)c3)nc3sccn23)n1)c1ccc(F)cc1", "measured-metric": "GI50", "observed-result": "7.51 µM"}
{"compound": "COc1ccc(Nc2c3ccccc3nc3c2c2ccccc2n3C)cc1", "measured-metric": "GI50", "observed-result": "28 µM"}

**Query** Could you share which GI50 value was measured for Nc1nc(N)c2cc(CNc3ccc(Cl)c(Cl)c3)ccc2n1 ?
**Result** 0.544 µM

**Query** Next up: O=C1Cc2cc(CCn3ccnc3)c(Cl)cc2N1
**Result** 11.2 µM

**Query** Another compound to check: CCOP(=O)(CCP(=O)(OCC)OCC)OCC.C[CH2][Sn]([Cl])([Cl])[CH2]C
**Result** 38.8 µM

**Query** Quick one: O=C1C2=C(C(=O)c3c(O)ccc(O)c31)N(c1ccc(N3CCOCC3)nc1)Cc1ccccc1O2
**Result** 1.37 µM

**Query** Try this compound next: CCCCCCN(CCCCCC)CCCNc1nccc2ccccc12
**Result** 2.53 µM

**Query** And for Fc1ccc(-c2nc(-c3nc4ccc(Cl)cc4[nH]3)cc3c2[nH]c2ccccc23)cc1 ?
**Result** 3.66 µM

###

tested on: NCI-H23 lung; experiment: NCI tumour cell line growth inhibition, 48 h
Items are presented alongside their recorded TGI.

**Query** Need TGI, item CC(=O)OCC1C(C(C)OC(C)=O)CCC2C1CCC1(C)C(OC(C)=O)CCC21 (stereo not given)
**Result** 76.1 µM

###

TGI listing for selected compounds.
test system: HCT-15 colon; assay: NCI tumour cell line growth inhibition, 48 h

Use the examples below as a reference point.
{"compound": "CC(=O)CC(=O)CCCC(=O)Nc1ccc(Cl)cc1C", "target-under-test": "HCT-15 colon", "observed-result": "> 100 µM"}
{"compound": "COc1cc(Cn2c3c(c4c(CN(C)C)c(O)ccc42)C(=O)c2ccccc2C3=O)cc(OC)c1", "target-under-test": "HCT-15 colon", "observed-result": "28.2 µM"}
{"compound": "CCCCCCN(CCCCCC)CCCNc1nccc2ccccc12", "target-under-test": "HCT-15 colon", "observed-result": "3.21 µM"}

**Query** Give the measured TGI of CCN(CC)CCNc1ccc([N+](=O)[O-])c2nc3ccccc3c(N)c12 .
**Result** 1.75 µM

**Query** Likewise for CN1CN(c2ccccc2)C2(CCNCC2)C1=O ?
**Result** > 100 µM

**Query** Cool, now C#CCNC(=O)CCC(N)C(=O)O (stereo not given)
**Result** > 100 µM

**Query** Ok, now CC(=O)Nc1ccc2nncnc2c1
**Result** > 100 µM

**Query** Also need COC1=C(OC)C(=O)C(/C=C(\C)C(=O)O)=C(C)C1=O , thanks.
**Result** > 100 µM

**Query** Next compound: O=c1[nH]c(=S)[nH]c2c1sc(=S)n2-c1ccccc1
**Result** > 100 µM

**Query** Same for Nn1c(CNc2ccc(-c3nnc(Nc4ccc(Cl)cc4)n3N)cc2)nnc1Nc1ccc(Cl)cc1
**Result** > 100 µM

###

system: MDA-MB-231 breast
Your response should consist of one outcome taken from active, inactive

Answered examples (2):
{"molecule": "Fc1ccc(-c2nc(-c3nc4ccc(Cl)cc4[nH]3)cc3c2[nH]c2ccccc23)cc1", "answer-label": "inactive"}
{"molecule": "O=C(Oc1cccnc1)c1ccccc1Nc1ccnc(C(F)(F)F)c1", "answer-label": "active"}

**Query** Just curious, what result did COC(=O)/C(C#N)=C\N1CCN(C(=O)c2ccco2)C1=S get here?
**Result** inactive

**Query** Another molecule: O=C(CCCn1c2c(sc3ncccc32)c(=O)n2nnc(-c3ccccc3)c12)NCCc1cnc[nH]1
**Result** inactive

**Query** // query: c1cncc(CNc2ccccc2-c2nnc(Nc3ccc4c(c3)OCO4)o2)c1
**Result** active

**Query** Please give the result for CSc1ccc2c(c1)c(CCN)c(C)n2Cc1ccc(Cl)c(Cl)c1 too.
**Result** inactive

**Query** Request: COc1ccc(Nc2c3ccccc3nc3c2c2ccccc2n3C)cc1
**Result** inactive

**Query** Do the same for Cc1cccc(CN(C)c2ccc(CO)c(Cl)c2)c1 please
**Result** inactive

###

tested on: OVCAR-4 ovarian
Respond only with the outcome that fits, drawn from active, inactive

Here's what some known entries look like.
{"compound": "Nc1nc(N)c2cc(CNc3ccc(Cl)c(Cl)c3)ccc2n1", "target-under-test": "OVCAR-4 ovarian", "answer-label": "inactive"}
{"compound": "COC(=O)/C(C#N)=C\\N1CCN(C(=O)c2ccco2)C1=S", "target-under-test": "OVCAR-4 ovarian", "answer-label": "inactive"}

**Query** Called result for CSC1=Nc2c(c(C)c(-c3ccccc3)n2COC(CO)CO)C2=NC(=O)C(C)N12 (stereo not drawn)
**Result** inactive

**Query** How about CCCNc1nc(N(C)O)nc(N(C)O)n1 ?
**Result** inactive

**Query** Same thing, different compound: O=C(Oc1cccnc1)c1ccccc1Nc1ccnc(C(F)(F)F)c1
**Result** active

**Query** Proceed to COc1cc(/C=C/C(=O)C(=Cc2ccc(F)c(F)c2)C(=O)/C=C/c2ccc(O)c(OC)c2)ccc1O
**Result** inactive

**Query** And for COc1cc2c(cc1OCCCCNC(=O)c1cc3ccccc3[nH]1)N=CC1CCCN1C2=O (stereo not drawn) ?
**Result** inactive

**Query** Similarly, C=C1CC[C@@H]2C(C)(C)[C@@H](O)CC[C@@]2(C)[C@@H]1COc1ccc2ccc(=O)oc2c1 ?
**Result** inactive

###

system: RPMI-8226 leukemia; assay: NCI tumour cell line growth inhibition, 48 h
TGI reference

# count of solved cases: 9
{"compound": "N#Cc1ccc(Oc2nccc(-c3c(-c4ccc(F)cc4)ncn3C3CCNCC3)n2)cc1", "target-under-test": "RPMI-8226 leukemia", "TGI": "> 25 µM"}
{"compound": "CSC1=Nc2c(c(C)c(-c3ccccc3)n2COC(CO)CO)C2=NC(=O)C(C)N12 (stereo not given)", "target-under-test": "RPMI-8226 leukemia", "TGI": "> 100 µM"}
{"compound": "C=C1C(=O)OC2CCCCC3OC3C12 (stereo not given)", "target-under-test": "RPMI-8226 leukemia", "TGI": "27.4 µM"}
{"compound": "COc1ccc2c(=O)c([Se]c3coc4cc(OC)ccc4c3=O)coc2c1", "target-under-test": "RPMI-8226 leukemia", "TGI": "> 100 µM"}
{"compound": "O=C(NCCCN1CCN(CCCNC(=O)c2cnc3ccccc3n2)CC1)c1cnc2ccccc2n1", "target-under-test": "RPMI-8226 leukemia", "TGI": "> 100 µM"}
{"compound": "COC(=O)C12CCC(C(=O)OC)(Cc3c(c4ccccc4n3S(=O)(=O)c3ccccc3)C1)C2=O (stereo not given)", "target-under-test": "RPMI-8226 leukemia", "TGI": "> 100 µM"}
{"compound": "CCCCCCc1nn2c(-c3ccc(C)cc3)nnc2s1", "target-under-test": "RPMI-8226 leukemia", "TGI": "> 100 µM"}
{"compound": "CC(=O)NNc1nc(C)c(C(=O)NNC(=O)C(=O)Nc2ccc(C)c(C)c2)s1", "target-under-test": "RPMI-8226 leukemia", "TGI": "> 100 µM"}
{"compound": "COC(=O)CCC(NC(=S)N/N=C(\\C)c1ccccn1)C(=O)OC (stereo not given)", "target-under-test": "RPMI-8226 leukemia", "TGI": "> 100 µM"}

Now for another entry.
**Query** # get_value(readout= TGI, system= RPMI-8226 leukemia) for CN1CCc2c(sc3nc(Nc4ccccc4)n(N)c(=O)c23)C1
**Result** > 100 µM

###

tested on: A498 renal; assay: NCI tumour cell line growth inhibition, 48 h
measured-metric: TGI (µM)
// note: answer is a bare numeric in µM

Some compounds with recorded TGI:
{"compound": "COc1ccc(/C=C2\\N=C(c3ccccc3)OC2=O)c(OCc2ccccc2)c1", "target-under-test": "A498 renal", "TGI / µM": 68.5}
{"compound": "C=CCN1C(=O)/C(=c2\\sc3n(c2=O)C2C(NN=3)N(CC)C(=O)N2CC)c2ccccc21 (stereo not given)", "target-under-test": "A498 renal", "TGI / µM": 1.17}

With those in mind, consider the next compound.
**Query** Returns the measured TGI for the input compound. Input: O=C(CCCn1c2c(sc3ncccc32)c(=O)n2nnc(-c3ccccc3)c12)NCCc1cnc[nH]1
**Result** 22.6
